# Target Entity: Replicase polyprotein 1ab (Severe acute respiratory syndrome-related coronavirus)
Parameter: pIC50
Notebook: values listed as pIC50 are -log10 of the concentration (mol/L).

CC(C)C[C@H](NC(=O)OC1(Cc2ccccc2)CCN(S(C)(=O)=O)CC1)C(=O)N[C@H](C=O)C[C@@H]1CCNC1=O
5.41

Simply: CC(C)C[C@H](NC(=O)OC1CCN(S(C)(=O)=O)CC1)C(=O)N[C@@H](C[C@@H]1CCNC1=O)C(O)S(=O)(=O)O (some centres not stated) , Replicase polyprotein 1ab (Severe acute respiratory syndrome-related coronavirus), pIC50 = 4.38

Form field, pIC50 with Replicase polyprotein 1ab (Severe acute respiratory syndrome-related coronavirus), item CC(C)C[C@H](NC(=O)OC1CCN(C(=O)OC(C)(C)C)CC1)C(=O)N[C@@H](C[C@@H]1CCNC1=O)C(O)S(=O)(=O)O (some centres not stated) : 5.29

Here `CC(C)C[C@H](NC(=O)OC1(Cc2ccccc2)CCN(C(=O)OC(C)(C)C)CC1)C(=O)N[C@H](C=O)C[C@@H]1CCNC1=O` was tested on Replicase polyprotein 1ab (Severe acute respiratory syndrome-related coronavirus), and its pIC50 came to 5.28

The measured pIC50 that CC(C)C[C@H](NC(=O)OC1(Cc2ccccc2)CCN(C(=O)OC(C)(C)C)CC1)C(=O)N[C@@H](C[C@@H]1CCNC1=O)C(O)S(=O)(=O)O (some centres not stated) showed for Replicase polyprotein 1ab (Severe acute respiratory syndrome-related coronavirus) is 5.20

Record `CCC1(OC(=O)N[C@@H](CC(C)C)C(=O)N[C@H](C=O)C[C@@H]2CCNC2=O)CCN(C(=O)OC(C)(C)C)CC1` has Replicase polyprotein 1ab (Severe acute respiratory syndrome-related coronavirus) pIC50 equal to 5.26

With Replicase polyprotein 1ab (Severe acute respiratory syndrome-related coronavirus) as the test system, CC(C)C[C@H](NC(=O)OC1(Cc2ccccc2)CCN(S(C)(=O)=O)CC1)C(=O)N[C@@H](C[C@@H]1CCNC1=O)C(O)S(=O)(=O)O (some centres not stated) showed pIC50 of 5.37

Observed pIC50, Replicase polyprotein 1ab (Severe acute respiratory syndrome-related coronavirus), `CCOC(=O)N1CCC(OC(=O)N[C@@H](CC(C)C)C(=O)N[C@H](C=O)C[C@@H]2CCNC2=O)CC1` : 5.49

* * *

# Assay Summary: Cytotoxicity against African green monkey Vero81 cells assessed as reduction in cell viability after 72 hrs by CytoTox 96 nonradioactive cytotoxicity assay
# Format: cell-based
# Run Conditions: chlorocebus sabaeus
Reported values of CC50 at 72 h for individual entries

CC(C)C[C@H](NC(=O)OC1(Cc2ccccc2)CCN(C(=O)OC(C)(C)C)CC1)C(=O)N[C@@H](C[C@@H]1CCNC1=O)C(O)S(=O)(=O)O (some centres not stated)
> 100 µM

Entry CC(C)C[C@H](NC(=O)OC1CCN(C(=O)OC(C)(C)C)CC1)C(=O)N[C@@H](C[C@@H]1CCNC1=O)C(O)S(=O)(=O)O (some centres not stated) — recorded CC50 at 72 h = > 100 µM

* * *

# Assay Summary: Cytotoxicity against mouse CCL-9.1 assessed as reduction in cell viability after 72 hrs by CytoTox 96 nonradioactive cytotoxicity assay
# Run Conditions: CCL-9.1 cells
Parameter: CC50 at 72 h

CC(C)C[C@H](NC(=O)OC1(Cc2ccccc2)CCN(C(=O)OC(C)(C)C)CC1)C(=O)N[C@@H](C[C@@H]1CCNC1=O)C(O)S(=O)(=O)O (some centres not stated)
> 100 µM

So, CC(C)C[C@H](NC(=O)OC1CCN(C(=O)OC(C)(C)C)CC1)C(=O)N[C@@H](C[C@@H]1CCNC1=O)C(O)S(=O)(=O)O (some centres not stated) ? Its CC50 at 72 h was > 100 µM

* * *

# Test system: Middle East respiratory syndrome-related coronavirus
# Assay Summary: Antiviral activity against Middle East respiratory syndrome-related coronavirus infected in African green monkey Vero81 cells assessed as reduction in viral titer after 48 hrs
# Type: functional, organism-based
Parameter: EC50 (nM)
Report only the number, with the unit nM understood.

CC(C)C[C@H](NC(=O)OC1CCN(C(=O)OC(C)(C)C)CC1)C(=O)N[C@@H](C[C@@H]1CCNC1=O)C(O)S(=O)(=O)O (some centres not stated)
500

Please look at the following compound next.
Record summary for CC(C)C[C@H](NC(=O)OC1(Cc2ccccc2)CCN(C(=O)OC(C)(C)C)CC1)C(=O)N[C@@H](C[C@@H]1CCNC1=O)C(O)S(=O)(=O)O (some centres not stated) : reported EC50 = 800

* * *

Each record here notes measured CC50 at 72 h.
# Assay Summary: Cytotoxicity against cat CRFK cells assessed as reduction in cell viability after 72 hrs by CytoTox 96 nonradioactive cytotoxicity assay
# Format: cell-based, Felis catus

CC(C)C[C@H](NC(=O)OC1CCN(C(=O)OC(C)(C)C)CC1)C(=O)N[C@@H](C[C@@H]1CCNC1=O)C(O)S(=O)(=O)O (some centres not stated)
> 100 µM

Next item in the queue.
Entry CC(C)C[C@H](NC(=O)OC1(Cc2ccccc2)CCN(C(=O)OC(C)(C)C)CC1)C(=O)N[C@@H](C[C@@H]1CCNC1=O)C(O)S(=O)(=O)O (some centres not stated) , CC50 at 72 h reported as > 100 µM

* * *

# Target Entity: Replicase polyprotein 1ab (Feline coronavirus (strain FIPV WSU-79/1146) (FCoV))
# Sequence (Q98VG9 2904-3205 limits assumed): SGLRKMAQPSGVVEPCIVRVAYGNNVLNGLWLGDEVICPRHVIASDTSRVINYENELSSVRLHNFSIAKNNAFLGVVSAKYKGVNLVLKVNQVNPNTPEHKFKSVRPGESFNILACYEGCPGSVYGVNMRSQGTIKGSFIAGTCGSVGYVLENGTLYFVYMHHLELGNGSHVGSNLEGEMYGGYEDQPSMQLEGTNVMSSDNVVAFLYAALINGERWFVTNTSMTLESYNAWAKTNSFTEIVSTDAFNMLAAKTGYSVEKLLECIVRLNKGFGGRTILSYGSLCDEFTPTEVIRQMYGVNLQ
# Assay Summary: Inhibition of Feline infectious peritonitis virus 3CL protease using Dabcyl-KTSAVLQ/SGFRKME-Edans as substrate incubated for 30 mins followed by substrate addition measured after 1 hr by FRET assay
Parameter: IC50 (µM)
Output spec: scalar in µM, unitless text.

Below: 6 compounds and their reported IC50.
CC(C)C[C@H](NC(=O)OC1CCN(S(C)(=O)=O)CC1)C(=O)N[C@@H](C[C@@H]1CCNC1=O)C(O)S(=O)(=O)O (some centres not stated)
2.3
CC(C)C[C@H](NC(=O)OC1(Cc2ccccc2)CCN(C(=O)OC(C)(C)C)CC1)C(=O)N[C@H](C=O)C[C@@H]1CCNC1=O
1.6
CCC1(OC(=O)N[C@@H](CC(C)C)C(=O)N[C@@H](C[C@@H]2CCNC2=O)C(O)S(=O)(=O)O)CCN(C(=O)OC(C)(C)C)CC1 (some centres not stated)
6.7
CC(C)C[C@H](NC(=O)OC1(Cc2ccccc2)CCN(C(=O)OC(C)(C)C)CC1)C(=O)N[C@@H](C[C@@H]1CCNC1=O)C(O)S(=O)(=O)O (some centres not stated)
2.1
CCOC(=O)N1CCC(OC(=O)N[C@@H](CC(C)C)C(=O)N[C@@H](C[C@@H]2CCNC2=O)C(O)S(=O)(=O)O)CC1 (some centres not stated)
1.1
CC(C)C[C@H](NC(=O)OC1CCN(C(=O)OC(C)(C)C)CC1)C(=O)N[C@@H](C[C@@H]1CCNC1=O)C(O)S(=O)(=O)O (some centres not stated)
2.4

Field: next compound
IC50 in this record for `CCC1(OC(=O)N[C@@H](CC(C)C)C(=O)N[C@H](C=O)C[C@@H]2CCNC2=O)CCN(C(=O)OC(C)(C)C)CC1` : 5.5

* * *

Parameter pIC50: see the listing below.
# Target Entity: Replicase polyprotein 1ab (Feline coronavirus (strain FIPV WSU-79/1146) (FCoV))
# Assay Summary: Inhibition of Feline infectious peritonitis virus 3CL protease using Dabcyl-KTSAVLQ/SGFRKME-Edans as substrate incubated for 30 mins followed by substrate addition measured after 1 hr by FRET assay
Keep it numeric: pIC50 is minus log10 of the concentration in mol/L.

Below are worked cases with known answers.
CCOC(=O)N1CCC(OC(=O)N[C@@H](CC(C)C)C(=O)N[C@H](C=O)C[C@@H]2CCNC2=O)CC1
5.89
CC(C)C[C@H](NC(=O)OC1(Cc2ccccc2)CCN(S(C)(=O)=O)CC1)C(=O)N[C@@H](C[C@@H]1CCNC1=O)C(O)S(=O)(=O)O (stereo not given in full)
5.96
CC(C)C[C@H](NC(=O)OC1CCN(S(C)(=O)=O)CC1)C(=O)N[C@H](C=O)C[C@@H]1CCNC1=O
5.46

The compound `CC(C)C[C@H](NC(=O)OC1CCN(C(=O)OC(C)(C)C)CC1)C(=O)N[C@H](C=O)C[C@@H]1CCNC1=O` showed pIC50 equal to 6.10

Please fill in: pIC50 reported for `CC(C)C[C@H](NC(=O)OC1(Cc2ccccc2)CCN(S(C)(=O)=O)CC1)C(=O)N[C@H](C=O)C[C@@H]1CCNC1=O` = 6.10

* * *

# Target Entity: Replicase polyprotein 1ab (Middle East respiratory syndrome-related coronavirus (isolate UnitedKingdom/H123990006/2012) (Betacoronavirus England 1) (Humancoronavirus EMC))
# Sequence (K9N7C7 3248-3553 limits assumed): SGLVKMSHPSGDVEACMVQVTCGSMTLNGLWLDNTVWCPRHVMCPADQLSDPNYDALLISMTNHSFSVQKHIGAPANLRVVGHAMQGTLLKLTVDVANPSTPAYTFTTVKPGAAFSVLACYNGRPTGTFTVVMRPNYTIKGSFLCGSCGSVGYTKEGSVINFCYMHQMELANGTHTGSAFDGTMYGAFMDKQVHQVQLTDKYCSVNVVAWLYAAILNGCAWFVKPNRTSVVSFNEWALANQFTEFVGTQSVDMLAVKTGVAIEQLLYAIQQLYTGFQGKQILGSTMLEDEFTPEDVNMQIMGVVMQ
# Assay Summary: Inhibition of Middle East respiratory syndrome-related coronavirus 3CL protease using Dabcyl-KTSAVLQ/SGFRKME-Edans as substrate incubated for 30 mins followed by substrate addition measured after 1 hr by FRET assay
pIC50: −log10 of the molar value.
Output yes for pIC50 not less than 6; output no otherwise.

Example entries and their recorded answers appear below.
CC(C)C[C@H](NC(=O)OC1CCN(C(=O)OC(C)(C)C)CC1)C(=O)N[C@@H](C[C@@H]1CCNC1=O)C(O)S(=O)(=O)O (some centres not stated)
yes
CC(C)C[C@H](NC(=O)OC1CCN(S(C)(=O)=O)CC1)C(=O)N[C@@H](C[C@@H]1CCNC1=O)C(O)S(=O)(=O)O (some centres not stated)
yes
CCOC(=O)N1CCC(OC(=O)N[C@@H](CC(C)C)C(=O)N[C@@H](C[C@@H]2CCNC2=O)C(O)S(=O)(=O)O)CC1 (some centres not stated)
yes
CCC1(OC(=O)N[C@@H](CC(C)C)C(=O)N[C@@H](C[C@@H]2CCNC2=O)C(O)S(=O)(=O)O)CCN(C(=O)OC(C)(C)C)CC1 (some centres not stated)
no
CC(C)C[C@H](NC(=O)OC1CCN(C(=O)OC(C)(C)C)CC1)C(=O)N[C@H](C=O)C[C@@H]1CCNC1=O
yes
CCC1(OC(=O)N[C@@H](CC(C)C)C(=O)N[C@H](C=O)C[C@@H]2CCNC2=O)CCN(C(=O)OC(C)(C)C)CC1
no

QUERY: Does `CCOC(=O)N1CCC(OC(=O)N[C@@H](CC(C)C)C(=O)N[C@H](C=O)C[C@@H]2CCNC2=O)CC1` have a reported pIC50 of at least 6?
RESULT: yes
